# TESTED TARGET: TRIM25 CC (UniProt Q14258 189-379)
# Sequence (Q14258 189-379): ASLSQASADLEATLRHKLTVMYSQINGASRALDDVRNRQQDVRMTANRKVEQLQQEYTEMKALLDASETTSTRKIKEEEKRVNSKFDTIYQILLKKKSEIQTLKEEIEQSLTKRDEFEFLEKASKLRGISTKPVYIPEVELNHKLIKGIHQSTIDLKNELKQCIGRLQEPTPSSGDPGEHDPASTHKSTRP
# EXPERIMENT NOTES: ITC; ITC and filter binding: 20 mM MES pH 6.5, 75 mM NaCl, 0.5 mM TCEP (ITC 20 C, filter binding on ice); NMR: 20 mM Na phosphate pH 6.5, 150 mM NaCl, 2 mM TCEP, 293 K
# RUN CONDITIONS: protein: recombinant; tags: His-Trx (removed); chain copies: 2; hairpin
REPORTED METRIC: Kd (µM)
Your answer should be a plain number; it is taken to be in µM.

Request the reported Kd associated with GUAUAGUUUAAAAGGAGAUAACUAUAC (structured_RNA) [pre-let-7a-1@2]
8.1
